The reported numbers originate from the RNAGym collection of RNA variant scans (doi:10.1126/science.aae0568).

B1: tRNA (parent)
chain: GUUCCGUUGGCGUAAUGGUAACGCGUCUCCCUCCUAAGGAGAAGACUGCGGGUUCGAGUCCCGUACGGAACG

Variants of: B1
Protocol details: yeast fitness relative to wild type (ratio to wild type); higher = fitter; tRNA-Arg(CCU), competitive growth, 37 C, YPD
Variants at the floor of the assay were thinned out.
Below, each entry is listed with its recorded yeast fitness.
Returns: the value as a bare number; no unit string appended.

| Variant label | yeast fitness |
| --- | --- |
| A20C C27U C55U | 0.76 |
| U16G C60G | 0.658 |

Any idea what its yeast fitness is? The variant is A14C C22G 0.701

Which measured yeast fitness value corresponds to U2A A36G ? 0.985
